These data points were gathered from patent US20200339625A1.

Test system: mice bearing PSMA-expressing LNCAP cancer xenografts
test_method_notes: Biodistribution of 68Ga-labeled compounds
Type: in vivo
measurement_parameters: 1 h post-injection

| compound | Spleen uptake / % ID/g |
| --- | --- |
| O=C([O-])CN1CCN(CC(=O)[O-])CCN(CC(=O)NCCCC[C@H](NC(=O)CNC(=O)CCc2ccccc2)C(=O)NC[C@H]2CC[C@H](C(=O)N[C@@H](Cc3ccc4ccccc4c3)C(=O)NCCCC[C@H](NC(=O)N[C@@H](CCC(=O)O)C(=O)O)C(=O)O)CC2)CCN(CC(=O)[O-])CC1.[68Ga+3] [^68Ga-HTK03082] | 1.12 |
| O=C([O-])CN1CCN(CC(=O)[O-])CCN(CC(=O)NCCCC[C@H](NC(=O)CNC(=O)CCCc2ccc(I)cc2)C(=O)NC[C@H]2CC[C@H](C(=O)N[C@@H](Cc3ccc4ccccc4c3)C(=O)NCCCC[C@H](NC(=O)N[C@@H](CCC(=O)O)C(=O)O)C(=O)O)CC2)CCN(CC(=O)[O-])CC1.[68Ga+3] [^68Ga-HTK03024] | 2.72 |
| Nc1ccc(CCCC(=O)NCC(=O)N[C@@H](CCCCNC(=O)CN2CCN(CC(=O)[O-])CCN(CC(=O)[O-])CCN(CC(=O)[O-])CC2)C(=O)NC[C@H]2CC[C@H](C(=O)N[C@@H](Cc3ccc4ccccc4c3)C(=O)NCCCC[C@H](NC(=O)N[C@@H](CCC(=O)O)C(=O)O)C(=O)O)CC2)cc1.[68Ga+3] [^68Ga-HTK03087] | 2.42 |

----------
A collection of compounds and their measured Tail uptake
Test system: mice bearing PSMA-expressing LNCAP cancer xenografts
test_method_notes: Biodistribution of 68Ga-labeled compounds
Type: in vivo
measurement_parameters: 3 h post-injection

| compound | target_of_assay | Tail uptake |
| --- | --- | --- |
| Cc1ccc(CCCC(=O)NCC(=O)N[C@@H](CCCCNC(=O)CN2CCN(CC(=O)[O-])CCN(CC(=O)[O-])CCN(CC(=O)[O-])CC2)C(=O)NC[C@H]2CC[C@H](C(=O)N[C@@H](Cc3ccc4ccccc4c3)C(=O)NCCCC[C@H](NC(=O)N[C@@H](CCC(=O)O)C(=O)O)C(=O)O)CC2)cc1.[68Ga+3] [^68Ga-HTK03090] | mice bearing PSMA-expressing LNCAP cancer xenografts | 3.75 ± 1.53 % ID/g |
| Nc1ccc(CCCC(=O)NCC(=O)N[C@@H](CCCCNC(=O)CN2CCN(CC(=O)[O-])CCN(CC(=O)[O-])CCN(CC(=O)[O-])CC2)C(=O)NC[C@H]2CC[C@H](C(=O)N[C@@H](Cc3ccc4ccccc4c3)C(=O)NCCCC[C@H](NC(=O)N[C@@H](CCC(=O)O)C(=O)O)C(=O)O)CC2)cc1.[68Ga+3] [^68Ga-HTK03087] | mice bearing PSMA-expressing LNCAP cancer xenografts | 0.27 ± 0.05 % ID/g |
| O=C([O-])CN1CCN(CC(=O)[O-])CCN(CC(=O)NCCCC[C@H](NC(=O)CNC(=O)CCCc2ccc(I)cc2)C(=O)NC[C@H]2CC[C@H](C(=O)N[C@@H](Cc3ccc4ccccc4c3)C(=O)NCCCC[C@H](NC(=O)N[C@@H](CCC(=O)O)C(=O)O)C(=O)O)CC2)CCN(CC(=O)[O-])CC1.[68Ga+3] [^68Ga-HTK03024] | mice bearing PSMA-expressing LNCAP cancer xenografts | 4.03 ± 0.43 % ID/g |

----------
System: mice bearing PSMA-expressing LNCAP cancer xenografts
test_method_notes: Biodistribution of 68Ga-labeled compounds
Assay type: in vivo
measurement_parameters: 1 h post-injection

| molecule | target_of_assay | Heart uptake (% ID/g) |
| --- | --- | --- |
| O=C([O-])CN1CCN(CC(=O)[O-])CCN(CC(=O)NCCCC[C@H](NC(=O)CNC(=O)CCCc2ccc([N+](=O)[O-])cc2)C(=O)NC[C@H]2CC[C@H](C(=O)N[C@@H](Cc3ccc4ccccc4c3)C(=O)NCCCC[C@H](NC(=O)N[C@@H](CCC(=O)O)C(=O)O)C(=O)O)CC2)CCN(CC(=O)[O-])CC1.[68Ga+3] [^68Ga-HTK03089] | mice bearing PSMA-expressing LNCAP cancer xenografts | 1.73 |
| O=C([O-])CN1CCN(CC(=O)[O-])CCN(CC(=O)NCCCC[C@H](NC(=O)CNC(=O)CCc2ccccc2)C(=O)NC[C@H]2CC[C@H](C(=O)N[C@@H](Cc3ccc4ccccc4c3)C(=O)NCCCC[C@H](NC(=O)N[C@@H](CCC(=O)O)C(=O)O)C(=O)O)CC2)CCN(CC(=O)[O-])CC1.[68Ga+3] [^68Ga-HTK03082] | mice bearing PSMA-expressing LNCAP cancer xenografts | 0.40 |
| O=C([O-])CN1CCN(CC(=O)[O-])CCN(CC(=O)NCC2CCC(C(=O)NC(Cc3ccc4ccc5cccc6ccc3c4c56)C(=O)NCCCCC(NC(=O)NC(CCC(=O)O)C(=O)O)C(=O)O)CC2)CCN(CC(=O)[O-])CC1.[68Ga+3] (stereo not shown) [^68Ga-HTK03029] | mice bearing PSMA-expressing LNCAP cancer xenografts | 1.25 |
| O=C([O-])CN1CCN(CC(=O)[O-])CCN(CC(=O)NCC2CCC(C(=O)NC(Cc3ccc4cc5ccccc5cc4c3)C(=O)NCCCCC(NC(=O)NC(CCC(=O)O)C(=O)O)C(=O)O)CC2)CCN(CC(=O)[O-])CC1.[68Ga+3] (stereo not shown) [^68Ga-HTK03027] | mice bearing PSMA-expressing LNCAP cancer xenografts | 0.56 |
| CCCCCCC(NC(=O)C1CCC(CNC(=O)CN2CCN(CC(=O)[O-])CCN(CC(=O)[O-])CCN(CC(=O)[O-])CC2)CC1)C(=O)NCCCCC(NC(=O)NC(CCC(=O)O)C(=O)O)C(=O)O.[68Ga+3] (stereo not shown) [^68Ga-HTK03026] | mice bearing PSMA-expressing LNCAP cancer xenografts | 0.30 |
| O=C([O-])CN1CCN(CC(=O)[O-])CCN(CC(=O)NCCCC[C@H](NC(=O)CNC(=O)CCCc2ccc(Cl)cc2)C(=O)NC[C@H]2CC[C@H](C(=O)N[C@@H](Cc3ccc4ccccc4c3)C(=O)NCCCC[C@H](NC(=O)N[C@@H](CCC(=O)O)C(=O)O)C(=O)O)CC2)CCN(CC(=O)[O-])CC1.[68Ga+3] [^68Ga-HTK03055] | mice bearing PSMA-expressing LNCAP cancer xenografts | 5.20 |
| O=C([O-])CN1CCN(CC(=O)[O-])CCN(CC(=O)NCCCC[C@H](NC(=O)CNC(=O)CCCc2ccc(Br)cc2)C(=O)NC[C@H]2CC[C@H](C(=O)N[C@@H](Cc3ccc4ccccc4c3)C(=O)NCCCC[C@H](NC(=O)N[C@@H](CCC(=O)O)C(=O)O)C(=O)O)CC2)CCN(CC(=O)[O-])CC1.[68Ga+3] [^68Ga-HTK03058] | mice bearing PSMA-expressing LNCAP cancer xenografts | 6.09 |

----------
Test system: mice bearing PSMA-expressing LNCAP cancer xenografts
test_method_notes: Biodistribution of 68Ga-labeled compounds
Format: in vivo
measurement_parameters: 3 h post-injection
metric: Seminal uptake (% ID/g)

| compound | endpoint_value |
| --- | --- |
| O=C([O-])CN1CCN(CC(=O)[O-])CCN(CC(=O)NCCCC[C@H](NC(=O)CNC(=O)CCCc2ccc(I)cc2)C(=O)NC[C@H]2CC[C@H](C(=O)N[C@@H](Cc3ccc4ccccc4c3)C(=O)NCCCC[C@H](NC(=O)N[C@@H](CCC(=O)O)C(=O)O)C(=O)O)CC2)CCN(CC(=O)[O-])CC1.[68Ga+3] [^68Ga-HTK03024] | 1.63 |
| O=C([O-])CN1CCN(CC(=O)[O-])CCN(CC(=O)NCCCC[C@H](NC(=O)CNC(=O)CCc2ccccc2)C(=O)NC[C@H]2CC[C@H](C(=O)N[C@@H](Cc3ccc4ccccc4c3)C(=O)NCCCC[C@H](NC(=O)N[C@@H](CCC(=O)O)C(=O)O)C(=O)O)CC2)CCN(CC(=O)[O-])CC1.[68Ga+3] [^68Ga-HTK03082] | 0.12 |
| Cc1ccc(CCCC(=O)NCC(=O)N[C@@H](CCCCNC(=O)CN2CCN(CC(=O)[O-])CCN(CC(=O)[O-])CCN(CC(=O)[O-])CC2)C(=O)NC[C@H]2CC[C@H](C(=O)N[C@@H](Cc3ccc4ccccc4c3)C(=O)NCCCC[C@H](NC(=O)N[C@@H](CCC(=O)O)C(=O)O)C(=O)O)CC2)cc1.[68Ga+3] [^68Ga-HTK03090] | 0.89 |

----------
Tested on: mice bearing LNCaP tumor xenografts
test_method_notes: PET/CT imaging of 68Ga-labeled compounds
Assay type: in vivo
measurement_parameters: PET/CT images
metric: change of tumor uptake from 1 h to 3 h post-injection

| molecule | target_of_assay | endpoint_value |
| --- | --- | --- |
| Cc1ccc(CCCC(=O)NCC(=O)N[C@@H](CCCCNC(=O)CN2CCN(CC(=O)[O-])CCN(CC(=O)[O-])CCN(CC(=O)[O-])CC2)C(=O)NC[C@H]2CC[C@H](C(=O)N[C@@H](Cc3ccc4ccccc4c3)C(=O)NCCCC[C@H](NC(=O)N[C@@H](CCC(=O)O)C(=O)O)C(=O)O)CC2)cc1.[68Ga+3] [^68Ga-HTK03090] | mice bearing LNCaP tumor xenografts | increases over time |
| COc1ccc(CCCC(=O)NCC(=O)N[C@@H](CCCCNC(=O)CN2CCN(CC(=O)[O-])CCN(CC(=O)[O-])CCN(CC(=O)[O-])CC2)C(=O)NC[C@H]2CC[C@H](C(=O)N[C@@H](Cc3ccc4ccccc4c3)C(=O)NCCCC[C@H](NC(=O)N[C@@H](CCC(=O)O)C(=O)O)C(=O)O)CC2)cc1.[68Ga+3] [^68Ga-HTK03086] | mice bearing LNCaP tumor xenografts | increases over time |
| O=C([O-])CN1CCN(CC(=O)[O-])CCN(CC(=O)NCCCC[C@H](NC(=O)CNC(=O)CCCc2ccc([N+](=O)[O-])cc2)C(=O)NC[C@H]2CC[C@H](C(=O)N[C@@H](Cc3ccc4ccccc4c3)C(=O)NCCCC[C@H](NC(=O)N[C@@H](CCC(=O)O)C(=O)O)C(=O)O)CC2)CCN(CC(=O)[O-])CC1.[68Ga+3] [^68Ga-HTK03089] | mice bearing LNCaP tumor xenografts | increases over time |
